# Test system: 786-0 renal
# run_description: NCI tumour cell line growth inhibition, 48 h
# maps each entry to its TGI

Below, each entry is followed by its recorded TGI result.
molecule	tested_target	measured_result
O=C(Nc1cc(Oc2cc(F)c(NC(=O)C3(C(=O)Nc4ccc(F)cc4)CC3)cc2F)ccn1)C1CC1	786-0 renal	> 50.1 µM
O=C(CC(=O)c1cccc(Cl)c1)c1cccc(Cl)c1	786-0 renal	> 100 µM
COc1ccccc1NS(=O)(=O)c1ccc2oc(SC(C)C)nc2c1	786-0 renal	> 100 µM
C=CCN(c1cc(OC)c2[nH]c(C(=O)OCC)c(C)c2c1[N+](=O)[O-])S(C)(=O)=O	786-0 renal	> 100 µM
N#CCN(CC#N)C1CC=CCC1N(CC#N)CC#N (stereo unspecified)	786-0 renal	> 100 µM

# input for lookup
Value of TGI reported for the molecule "Nc1ccccc1C#C/C=C\C#Cc1c(F)c(F)c(F)c(F)c1F" is 30.5 µM

These data points were gathered from PubChem BioAssay (NCI).
